Experiment: Neutralization of an aqueous solution of SAM-e tosylate with buffering agents to pH 7
Assay type: physicochemical
Conditions: SAMe tosylate 400 mg/100 mL, before addition of the neutralizing agent
From the text: After measuring the pH, the solution was gradually added with buffering substance until neutralization and a pH 7 value were reached. As it can be seen from the table below (Table 9), the amount of Lysine and Potassium Citrate tribasic appear to be excessive to consider their use in commercial pharmaceutical forms. More precisely, from the table it can be noted that 15.4 g of Lysine fail to bring the SAMe solution to neutralization (the pH value remains 4). […]
parameter.measured: Initial pH

Below, 6 molecules whose answers are already recorded.
> print(dat)
                                   molecule  recorded.result
1  O=C([O-])CC(O)(CC(=O)[O-])C(=O)[O-].[K+].[K+].[K+] [Potassium citrate tribasic]             2.10
2              NCCCC[C@H](N)C(=O)O [Lysine]             2.08
3  O=P([O-])([O-])[O-].[Na+].[Na+].[Na+] [Sodium phosphate tribasic]             2.09
4  O=C([O-])[O-].[Na+].[Na+] [Sodium carbonate]             2.10
5       N=C(N)NCCC[C@H](N)C(=O)O [Arginine]             2.08
6          [O]=[Mg] [Light magnesium oxide]             2.08

Now let's try a different one.
Entry O=C([O-])O.[Na+] [Sodium bicarbonate] needs its Initial pH filled in; supply it. 2.08

###

assay: Neutralization of an aqueous solution of SAM-e tosylate with buffering agents to pH 7; assay type: physicochemical; settings: added to SAMe tosylate 400 mg/100 mL until neutralization
Label satisfied for high-side Neutralizing agents added amount (at or above 400 mg) and not satisfied for low-side Neutralizing agents added amount (below it).

See these solved cases before continuing.
> print(dat)
                                   compound       category
1  O=C([O-])CC(O)(CC(=O)[O-])C(=O)[O-].[K+].[K+].[K+] [Potassium citrate tribasic]      satisfied
2  O=P([O-])([O-])[O-].[Na+].[Na+].[Na+] [Sodium phosphate tribasic]      satisfied
3          [O]=[Mg] [Light magnesium oxide]  not satisfied
4  O=C([O-])[O-].[Na+].[Na+] [Sodium carbonate]  not satisfied
5              NCCCC[C@H](N)C(=O)O [Lysine]      satisfied
6     O=C([O-])O.[Na+] [Sodium bicarbonate]      satisfied

Check this compound for Neutralizing agents added amount at or above 400 mg: N=C(N)NCCC[C@H](N)C(=O)O [Arginine] not satisfied

###

assay: Neutralization of an aqueous solution of SAM-e tosylate with buffering agents to pH 7; format: physicochemical; settings: SAMe tosylate 400 mg/100 mL after addition of the neutralizing agent
Recorded measurements of Final pH, one per entry
Write no unit; give the number alone.

> print(dat)
                                   compound  recorded.result
1  O=C([O-])[O-].[Na+].[Na+] [Sodium carbonate]              7.0

Complete the entry with Final pH for O=P([O-])([O-])[O-].[Na+].[Na+].[Na+] [Sodium phosphate tribasic] 7.0

Assign Final pH to the following record: O=C([O-])CC(O)(CC(=O)[O-])C(=O)[O-].[K+].[K+].[K+] [Potassium citrate tribasic] 7.0

Output Final pH of N=C(N)NCCC[C@H](N)C(=O)O [Arginine] 7.0

These data points were gathered from patent US20220273690A1.
